- systemUnderTest: T1, human programmed cell death protein 1 (hPD-1) C93S (aa 24-167) (Homo sapiens, UniProt Q15116, C93S)
- T1 construct: made as a fusion with a TEV site and human Fc; the Fc was cut off with TEV protease; source: Expi293F, purified (Protein A, TEV cleavage of Fc, SEC; monomer fractions); not shown: Fc (human), C-terminal, cleaved
- T1 sequence (Q15116 24-167 C93S): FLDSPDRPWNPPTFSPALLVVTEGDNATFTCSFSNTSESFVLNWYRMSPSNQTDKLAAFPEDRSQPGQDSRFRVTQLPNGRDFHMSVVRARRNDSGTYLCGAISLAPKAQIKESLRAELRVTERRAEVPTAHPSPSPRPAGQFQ
- protocolNotes: SPR; Carterra LSA; Fab from the ammonium sulfate precipitate of the culture supernatant immobilised on a NiHC200M chip; hPD-1 (1-1024 nM) or mPD-1-Fc (4-1024 nM) as analyte, fourfold dilution series, no regeneration; HBS-EP pH 7.4, 25 °C; medians over the spots of a construct, KD = koff/kon
- conditionContext: one partner purified
// values below are reported Kd
Respond with the bare value in nM.

binder	Kd / nM
toripalimab Fab L.L101S (Fab, V domains shown, as the heavy chain of Sm3; light chain of Sm3 with this change; numbers count from the chain's first residue; source: Brevibacillus, culture supernatant (ammonium sulfate precipitate); not shown: 6xHis, C-terminal, kept; 6xHN, C-terminal, kept) VH: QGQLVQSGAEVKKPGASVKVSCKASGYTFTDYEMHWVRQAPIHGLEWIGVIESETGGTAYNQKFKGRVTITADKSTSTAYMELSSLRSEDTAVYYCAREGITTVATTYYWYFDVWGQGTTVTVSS VL: DVVMTQSPLSLPVTLGQPASISCRSSQSIVHSNGNTYLEWYLQKPGQSPQLLIYKVSNRFSGVPDRFSGSGSGTDFTLKISRVEAEDVGVYYCFQGSHVPSTFGQGTKLEIK	4.13

The record that follows has no Kd shown yet.
query: Provide measured Kd value, entry: toripalimab Fab L.V99A (Fab, V domains shown, as the heavy chain of Sm3; light chain of Sm3 with this change; numbers count from the chain's first residue; source: Brevibacillus, culture supernatant (ammonium sulfate precipitate); not shown: 6xHis, C-terminal, kept; 6xHN, C-terminal, kept) VH: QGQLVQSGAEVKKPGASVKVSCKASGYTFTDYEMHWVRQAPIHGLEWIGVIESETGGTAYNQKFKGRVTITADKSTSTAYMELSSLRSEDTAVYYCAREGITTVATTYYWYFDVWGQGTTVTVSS VL: DVVMTQSPLSLPVTLGQPASISCRSSQSIVHSNGNTYLEWYLQKPGQSPQLLIYKVSNRFSGVPDRFSGSGSGTDFTLKISRVEAEDVGVYYCFQGSHAPLTFGQGTKLEIK
result: 1.61
